# Test system: NCI-H1650
# test summary: relative viability (nuclei count vs DMSO), 5 days (fraction); higher = more cells survive
# experimental setup: first compound 0.002 µM
reported metric: relative viability

1) CCNC(=O)c1noc(-c2cc(C(C)C)c(O)cc2O)c1-c1ccc(CN2CCOCC2)cc1 [Luminespib] + CC(=O)Nc1cccc(-n2c(=O)n(C3CC3)c(=O)c3c(Nc4ccc(I)cc4F)n(C)c(=O)c(C)c32)c1 [Trametinib] (partner 0.02 µM) = 0.571
2) CCNC(=O)c1noc(-c2cc(C(C)C)c(O)cc2O)c1-c1ccc(CN2CCOCC2)cc1 [Luminespib] + O=C(CCCCCCC(=O)Nc1ccccc1)NO [Vorinostat] (partner 1 µM) = 0.478
3) CCNC(=O)c1noc(-c2cc(C(C)C)c(O)cc2O)c1-c1ccc(CN2CCOCC2)cc1 [Luminespib] + COc1cccc2cc(-c3nc([C@H]4CC[C@H](C(=O)O)CC4)n4ncnc(N)c34)[nH]c12 [OSI-027] (partner 0.5 µM) = 0.717
4) CCNC(=O)c1noc(-c2cc(C(C)C)c(O)cc2O)c1-c1ccc(CN2CCOCC2)cc1 [Luminespib] + CS(=O)(=O)CCNCc1ccc(-c2ccc3ncnc(Nc4ccc(OCc5cccc(F)c5)c(Cl)c4)c3c2)o1 [Lapatinib] (partner 2 µM) = 0.761
5) CCNC(=O)c1noc(-c2cc(C(C)C)c(O)cc2O)c1-c1ccc(CN2CCOCC2)cc1 [Luminespib] + CC(C)C[C@H](NC(=O)[C@H](Cc1ccccc1)NC(=O)c1cnccn1)B(O)O [Bortezomib] (partner 0.002 µM) = 0.209
6) CCNC(=O)c1noc(-c2cc(C(C)C)c(O)cc2O)c1-c1ccc(CN2CCOCC2)cc1 [Luminespib] + CC(=O)c1c(C)c2cnc(Nc3ccc(N4CCNCC4)cn3)nc2n(C2CCCC2)c1=O [Palbociclib] (partner 0.5 µM) = 0.305
